# reported viability; entries follow
Assay: MRP1 drug-resistance reversers in H69AR cells – cell-based, doxorubicin co-treatment, pilot screen (AID 601)
Details: H69AR cells, CellTiter-Glo, 72 h; compound alone cytotoxicity; at 10 µM
experimentalEndpoint: viability (%)

- CCC1CCCCN1CCCNC(=O)CC1Oc2ccc(C)cc2NC1=O (stereo not drawn): 89.1
- Cc1ccc(-c2cc3nc4c(c(=O)n3[nH]2)CCCC4)cc1: 91.9
- Cc1cccc(-n2ncc3c(NCCCO)ncnc32)c1: 88.3
- Cc1cc(C)nc(SCc2ccc3nonc3c2)n1: 89.2
- COCCCNC(=O)c1ccc(CS(=O)(=O)c2ccc(OC)cc2)o1: 91.6
- CCOC(=O)N1CCN(C(=O)c2cnn(-c3ccccc3)c2NC(=O)c2ccccc2F)CC1: 92
- CCOC(=O)Nc1ccc2c(c1)N(C(=O)OCCN(C)C)c1ccccc1CC2: 90.2
- COc1cc(-c2nc(-c3ccncc3)no2)cc(OC)c1OC: 89.1
- Cc1cc(C)n(-c2cc(N3CCOCC3)ncn2)n1: 91.7
- CCOC(=O)C1=C(C)NC(=O)NC1c1ccc(OCCO)c(OC)c1 (stereo not drawn): 92.1
- Cc1nonc1NC(=O)c1ccccc1Br: 91.8
- Cc1nc2ccccc2c2oc(C(=O)NCCCN3CCCC3=O)cc12: 91.8
- CCCCNC(=O)Cn1c(=O)n(C)c2ccccc21: 88.5

====

Experiment: S. cerevisiae growth inhibition in permissive medium (OD615), pilot counter-assay for S. cerevisiae lifespan shortening project, permissive growth control (AID 705)
Conditions: OD615, 24 h, at 10 µM, stronger effect = higher value
experimentalEndpoint: growth inhibition (%)

- COc1ccccc1NC(=O)CSc1ncn[nH]1: -3.71
- COc1cc(NC(=O)CN(c2cc(C)cc(C)c2)S(=O)(=O)c2c(C)noc2C)cc(OC)c1: -14.8
- COCCNC(=O)c1ccc(CS(=O)(=O)c2c(Cl)cccc2Cl)o1: -17.4

====

Test: growth suppression of yeast trafficking mutant, preliminary HTS, modulators of trafficking downstream of Golgi apparatus project, 1536-format plate, OD 615 nm (AID 637)
Details: yeast transport mutant growth, absorbance 615 nm, 18 h; stronger effect = higher value
# reported inhibition; entries follow
experimentalEndpoint: inhibition (%)

• COc1ccc(N(C)C(=O)CCS(=O)(=O)c2cccc3nonc23)cc1 = -0.95
• Cc1cc(C)cc(N2C(=O)CC(N3CCOCC3)C2=O)c1 (stereo not drawn) = 0.82
• C/C=C/CSc1nc2c(c(=O)[nH]c(=O)n2C)n1Cc1ccc(C)cc1 = -0.49
• CCOCCCNC(=O)Cn1cc2c(n1)CCCCC2 = 2.67
• COc1ccc(-c2nc3c(c(SCC(=O)N4CCOCC4)n2)COC(C)(C)C3)cc1 = 13.8
• COc1ccc(NC(=O)c2cc(C3CC3)on2)c(OC)c1 = 1.17
• CCC1CCCCN1C(=O)CSc1nnc(-c2ccc(OC)cc2)o1 (stereo not drawn) = -9.34
• O=C(C(Cc1ccccc1)n1cccc1)N1CCCCCC1 (stereo not drawn) = -6.89
• CCCc1cc(=O)oc2c(C)c3occ(C)c3cc12 = -3.02
• N#Cc1nc(-c2ccc(Cl)cc2)oc1NCCc1ccccn1 = 5.4
• CN(C)CCN1C(=O)C(O)=C(C(=O)c2cc3ccccc3o2)C1c1ccc(N(C)C)cc1 (stereo not drawn) = 1.17
• O=C(NCc1cccs1)C(Cc1ccccc1)n1cccc1 (stereo not drawn) = -5.67
• Cc1ccc(S(=O)(=O)N(CC(=O)N2CCC(C(N)=O)CC2)Cc2ccc(F)cc2)cc1 = -3.45

====

Assay: S. cerevisiae growth inhibition in restrictive medium, OD615, pilot screen, restrictive growth control, yeast lifespan reduction project (AID 706);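 note: modified DeaD lifespan yeast strain shifted to restrictive glucose medium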
Details: OD615, 48 h, at 10 µM, stronger effect = higher value
Activity calls are given as the source filed them.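 The calls were made as follows: active = growth inhibition above a set limit, 3 SD over mean compound inhibition, in both replicates (cut at about 43% in these data); inconclusive = above the limit in only one replicate; inactive = at or below the limit in both replicates.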
# reported growth inhibition; entries follow
experimentalEndpoint: growth inhibition

* CCN1C(=O)c2ccccc2S(=O)(=O)c2ccc(C(=O)NCc3cccnc3)cc21 | -4.21% (inactive)
* CCOc1ccc(NC(=O)c2cnc3scc(C)n3c2=O)cc1 | 3.42% (inactive)
* CCOc1ccc(Cc2nnc(SCC(=O)c3ccc(OC)cc3)o2)cc1 | 25.5% (inactive)
* CCOC(=O)C1=C(N)OC2=C(C(=O)CCC2)C1c1cccs1 (centres undefined) | 5.78% (inactive)
* COc1cccc(C2CC(c3ccc(C)cc3)Nc3nc(N)nn32)c1 (centres undefined) | 2.23% (inactive)
* Cc1ccc(C)c(C(=O)CC2(O)C(=O)N(C)c3ccccc32)c1 (centres undefined) | -12.9% (inactive)
* COc1ccccc1S(=O)(=O)Cc1ccc(C(=O)N2CCN(c3ccc(C)cc3)C(C)C2)o1 (centres undefined) | -15.2% (inactive)
* Cc1cccc(-n2ncc3c(N4CCC5(CC4)OCCO5)ncnc32)c1 | -15.6% (inactive)
* COc1cccc(-c2nc(CS(=O)(=O)CC(=O)NCc3ccc(Cl)cc3)c(C)o2)c1 | -2.68% (inactive)
* COC(=O)c1cc(-c2ccccc2)sc1NC(=O)c1cc(C)on1 | -11.1% (inactive)
* CCOCCn1c(SCc2ccc(F)cc2)nc2c1c(=O)[nH]c(=O)n2C | 5.57% (inactive)
* COc1ccc(N(C)C(=O)CCS(=O)(=O)c2cccc3nonc23)cc1 | -8.78% (inactive)
* COc1ccc(-c2[nH]c(-c3cccc(OC)c3)nc2SCC(=O)NCc2ccco2)cc1 | 1.65% (inactive)
* O=C(Cn1c(=O)oc2cc(S(=O)(=O)N3CCCC3)ccc21)NC1CCCc2ccccc21 (centres undefined) | -9.71% (inactive)
* CCOC(=O)N1CCN(C(=O)c2ccc(N3C(=O)c4ccccc4C3=O)cc2)CC1 | -15.2% (inactive)
* COc1cccc(C2CC(c3ccc(F)cc3)Nc3nc(N)nn32)c1 (centres undefined) | 4.35% (inactive)
* COc1ccc(CNC(=O)CCS(=O)(=O)c2cccc3nonc23)cc1 | -26.3% (inactive)
* Cn1c(=O)c2c(nc(SCCNS(=O)(=O)c3ccccc3)n2C)n(C)c1=O | -16.3% (inactive)
* Cn1c(=O)oc2cc(S(=O)(=O)N3CCCC(C(=O)N4CCc5ccccc5C4)C3)ccc21 (centres undefined) | -8.79% (inactive)
* CC(C)c1nnc(NC(=O)c2ccc(N3C(=O)CCC3=O)cc2)s1 | -18.5% (inactive)
* Cc1ccc(-c2nnc3n2N=C(c2ccccc2)CS3)cc1 | 6.07% (inactive)
* Fc1ccc(CN2CCCCCCC2)cc1F | -9.1% (inactive)
* CC1(C)NC(=O)N(CC(O)COc2cccc(F)c2)C1=O (centres undefined) | -1.89% (inactive)
* Cc1ccc(SCC(=O)NCCN2C(=O)CSC2=O)c(C)c1 | -3.53% (inactive)
* Cc1ccc(-n2nc(C)c3c2OC(N)=C(C#N)C3c2cccs2)cc1 (centres undefined) | -26.3% (inactive)
* O=C(c1ccco1)N1CCN(C(=O)C2CC(c3ccc(F)cc3)=NO2)CC1 (centres undefined) | 22% (inactive)
* CCOC(=O)N1CCC(NC(=O)c2cc3c(-c4ccccc4F)nn(C)c3s2)CC1 | -13.5% (inactive)
* CCCN(CCC)CCNC(=O)c1cc2c(=O)n(C)c3ccccc3c2n1C | 1.31% (inactive)
* O=C(CC1NC(=O)NC1=O)NC1(C(=O)NC2CCCCC2)CCCCC1 (centres undefined) | 5.08% (inactive)
* CCOC(=O)c1sc2nc(NC(=O)c3cccs3)sc2c1C | -2.37% (inactive)
* CC(C)CCSc1nc2c(c(=O)[nH]c(=O)n2C)n1CCCc1ccccc1 | -9.37% (inactive)
* O=P(/C(=N/O)Sc1ccccc1)(N1CCOCC1)N1CCOCC1 | 1.87% (inactive)
* c1csc(CCNc2ncnc3sc4c(c23)CCC4)c1 | 13.9% (inactive)
* Cc1noc(NS(=O)(=O)c2ccc(NC(=O)CSc3ncccn3)cc2)c1C | -2.18% (inactive)

====

Experiment: MRP1 drug-resistance reversers in H69AR cells – cell-based, doxorubicin co-treatment, pilot screen (AID 601)
Details: H69AR cells, CellTiter-Glo, 72 h; compound alone cytotoxicity; at 10 µM
# reported viability; entries follow
experimentalEndpoint: viability (%)

* COc1ccccc1N1CCN(C(=O)N2CCOCC2)CC1 | 73.8
* CCOc1ccc(N(CC(=O)OC)S(=O)(=O)c2ccc(OC)c(OC)c2)cc1 | 106
* CCOc1ccc(NC(=O)CSc2nccn2C)cc1 | 99.7

====

Assay: RAM pathway blockade in budding yeast – dse1pr::URA3 reporter, 5-FOA selection, pilot screen (AID 869);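 note: 0% = DMSO wells with no growth and 100% = 10 µM 1-NA-PP1 with full growth; RAM network block rescues cells from 5-FOA so hits raise OD615 growth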
Settings: S. cerevisiae dse1pr::URA3 5-FOA growth, OD615, 2 d; at 10 µM; stronger effect = higher value; strain carries analog-sensitive mutant Cbk1 kinase
# reported inhibition; entries follow
experimentalEndpoint: inhibition (%)

* Cn1c(=O)oc2cc(S(=O)(=O)N3CCCC(C(=O)NCc4cccs4)C3)ccc21 (stereo unspecified) | 2.51
* Cc1cc(N2CCN(C3CCCCC3)CC2)nc2cccc(O)c12 | 2.71
* COC(=O)c1cn(NC(=O)c2cccnc2)c(=O)c2ccccc12 | 0.92
* CCOC(=O)/C(C#N)=C(/C)c1ccc(OC)cc1 | 1.11
* Cc1ccc(C(=O)CC2(O)C(=O)N(C)c3ccc(Br)cc32)c(C)c1 (stereo unspecified) | 2.44
* O=C(Nc1ccc(N2CCCC2)cc1)c1ccc(Br)o1 | 3.5
* Fc1ccc(-c2ccc(-c3nn4c(-c5ccco5)nnc4s3)o2)cc1 | 1.25
* CCOC(=O)C1CCCN(C(=O)Cn2nc(CC)n3c(cc4sccc43)c2=O)C1 (stereo unspecified) | 1.33
* CCOc1ccc(OCCCCN(C)C)cc1 | 3.26
* Cc1ccc(Oc2ccccc2)c(NC=O)c1 | -0.085
* CC1CCN(C(=O)C(Cc2ccccc2)n2cccc2)CC1 (stereo unspecified) | 2.27
* COCCNC(=O)Cn1ncc2ccsc2c1=O | 2.33
* COc1cc(NC(=O)CN(c2cc(C)cc(C)c2)S(=O)(=O)c2c(C)noc2C)cc(OC)c1 | 2.82
* CCN(CC)S(=O)(=O)c1ccc(Cl)c(C(=O)Nc2nnc(C)s2)c1 | -0.08
* O=C(Nc1cccc(Cl)c1)N1CCN(Cc2ccccc2)CC1 | 1.24
* O=C(Cn1nc(Cc2ccncc2)c2ccccc2c1=O)N1CCN(C(=O)c2ccco2)CC1 | 1.01
* Cc1nc2c(-c3ccc(F)cc3)c(C)nn2c(C)c1CCC(=O)NC(C)CCc1ccco1 (stereo unspecified) | 0.865
* Cc1ccc(C)c(Cn2c(CN(C)Cc3ccccc3)nc3c2c(=O)n(C)c(=O)n3C)c1 | 2.2
* CC1CCCCN1S(=O)(=O)c1ccc(NC(=O)c2cccs2)cc1 (stereo unspecified) | 1.48
* O=C(O)CN1C(=O)C2C3C=CC(C3)C2C1=O (stereo unspecified) | 1.61
* COC(=O)NCc1ccc(Cl)c(Cl)c1 | 0.09
* CC(C)CCn1c(NCCc2ccccc2)nc2c1c(=O)n(C)c(=O)n2C | 1.94
* CCn1c(=O)cc(OCC(=O)N2CCc3ccccc32)c2ccccc21 | 2.09
* C=C(C)Cn1c(-c2ccccc2)nc2ccccc21 | 1
* O=C(Nc1ncc(Cc2ccccc2)s1)C1CCCO1 (stereo unspecified) | 0.015
* CCOC(=O)C1CCCN(C(=O)Cc2c(C(=O)O)[nH]c3ccccc23)C1 (stereo unspecified) | 0.53
* C/C=C/COC(=O)c1[nH]c2c(c1C)C(=O)CC(c1ccco1)C2 (stereo unspecified) | 0.985
* Cc1ccc2c(c1)C(c1ccccc1)N(C(=O)c1ccc(Br)o1)CC(=O)N2 (stereo unspecified) | -0.275
* Cc1cc(=O)oc2cc(OCC(O)CN3CCN(c4ccc(F)cc4)CC3)ccc12 (stereo unspecified) | 0.85
* CCOC(=O)N1CCN(C(=O)CN(c2cc(Cl)ccc2OC)S(=O)(=O)c2ccccc2)CC1 | 1.68
* CC(C)c1nccn1S(=O)(=O)c1cc(Cl)ccc1Cl | 1.64
* CCOC(=O)N1CCC(NC(=O)C2CCN(Cc3nc(-c4ccc(CC)cc4)oc3C)CC2)CC1 | 0.435
* COc1cc(-c2nc(-c3cccc(C)c3)no2)cc(OC)c1OC | 2.26
* CCOc1ccc(-c2nc(-c3ccccc3)no2)cc1OCC | 3.66
* CCOc1ccc(S(=O)(=O)n2ccnc2)c2ccccc12 | 0.31
* Cc1cccc(C2CC(c3ccc(Cl)cc3)Nc3nc(N)nn32)c1 (stereo unspecified) | 0.01
